subjectOfTest: T1, HMMW micropeptide (recombinant, purified from Escherichia coli BL21) (human)
T1 construct: also called purified HMMW micropeptide; human HMMW micropeptide
T1 peptide: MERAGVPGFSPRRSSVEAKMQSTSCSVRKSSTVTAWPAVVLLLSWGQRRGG
protocolNotes: indirect ELISA, HMMW micropeptide coated at 1 ug/ml, antibody dilution 1:25K
propertyName: ELISA reading at antibody dilution 1:25K
Form rule: numeric answer, no unit written next to it.

Per the record, Anti-HMMW antibody-5 (antibody, V domains shown, Mouse monoclonal antibody from a BALB/c x SP2/0 hybridoma; also called anti-HMMW-5 antibody) VH: EVKLEESGGGLVQPGGSMKLSCVVSGFTFSNYWMNWVRQSPERGLEWVAEIKLKSNNYATLYAASVKGRFTISRDDSKSSVYLQVNNLRTEDTGIYYCITEIFDYWGQGTTLTVSS VL: QTVVTQESALTTSPGETVTLTCRSSTGSVTTSNYATWVQEKPDHLFTGLIVGANNRAPGVPARFSGSLIGDKAALTITGAQTEDEAIYFCALWFIDHWVFGGGTKLTVL has ELISA reading at antibody dilution 1:25K of 2.48

Per the record, Anti-HMMW antibody-4 (antibody, V domains shown, Mouse monoclonal antibody from a BALB/c x SP2/0 hybridoma; also called anti-HMMW-4 antibody) VH: EVKLEESGGGLVQPGGSMKLSCVASGFTFSDYWMNWVRQSPEKGLEWLTEIRLKSNNYLTHYAESVKGRFTISRDDSKSSVYLQMNNLRAEDTGIYYCSVETMDYWGQGISVTVSS VL: QAVVTQESALTTSSGETVTLTCRSSTGAVTTSNYANWVQEKPDHLFTGLIRGTNNRAPGVPARFSGSLIGDKAALTITGAQTEDEAIYFCALWYSNHWVFGGGTKLTVL has ELISA reading at antibody dilution 1:25K of 3.13
